Reference for the values: ChEMBL document CHEMBL1201862

# Test target: Corticotropin-releasing factor receptor 2/Corticotropin-releasing factor-binding protein (Homo sapiens, UniProt P24387+Q13324)
# Sequence (Q13324 whole entry): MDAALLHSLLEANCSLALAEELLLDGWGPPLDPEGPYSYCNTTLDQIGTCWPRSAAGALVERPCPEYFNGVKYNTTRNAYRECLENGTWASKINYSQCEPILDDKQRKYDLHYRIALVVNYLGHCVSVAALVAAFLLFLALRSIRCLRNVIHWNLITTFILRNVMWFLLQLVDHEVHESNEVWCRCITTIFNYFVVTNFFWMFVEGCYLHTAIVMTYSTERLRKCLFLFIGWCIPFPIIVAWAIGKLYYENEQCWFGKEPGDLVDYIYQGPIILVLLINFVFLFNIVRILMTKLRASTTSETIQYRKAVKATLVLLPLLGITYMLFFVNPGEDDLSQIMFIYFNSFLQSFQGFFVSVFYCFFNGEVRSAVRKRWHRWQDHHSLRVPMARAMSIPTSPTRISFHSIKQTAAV
# Sequence (P24387 whole entry): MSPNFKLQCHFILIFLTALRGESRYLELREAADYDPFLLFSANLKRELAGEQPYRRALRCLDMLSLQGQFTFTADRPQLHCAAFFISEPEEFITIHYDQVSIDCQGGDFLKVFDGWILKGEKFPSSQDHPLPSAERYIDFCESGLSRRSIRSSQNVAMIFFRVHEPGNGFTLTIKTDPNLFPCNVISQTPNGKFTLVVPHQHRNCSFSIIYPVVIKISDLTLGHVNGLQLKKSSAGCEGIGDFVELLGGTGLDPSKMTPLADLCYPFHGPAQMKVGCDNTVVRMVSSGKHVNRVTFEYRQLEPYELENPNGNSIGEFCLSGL
# Experiment: activators of CRF receptor 2 with binding protein – uHTS hits, confirmation (AID 602473)
# Type: functional
# Condition set: read-out: EC50_Mean
Activity calls are given as the source filed them. Non-standard residues stand in square brackets, D forms with d. Residues, ends and D or L forms follow the SMILES beside them. ξ: configuration not given here. *: point of attachment. Trx = NC[C@H]1CC[C@H](C(=O)O)CC1; Tic = O=C(O)[C@@H]1Cc2ccccc2CN1; Ile(3ξ) = CCC(C)[C@H](N)C(=O)O; Boc = CC(C)(C)OC(=O)*
Mark one answer only. Choices: YES (active), NO (inactive)

- Molecule: "CCC(C)[C@H](NC(=O)[C@@H]1Cc2ccccc2CN1C(=O)OC(C)(C)C)C(=O)NC[C@H]1CC[C@H](C(=O)O)CC1 (stereo not given in full) (Boc-[Tic]-[Ile(3ξ)]-[Trx]-OH)"
  Classification: "NO"
- Molecule: "COCCn1nnnc1C(c1ccccc1)N1CCN(c2ccccc2)CC1 (stereo not given)"
  Classification: "NO"
- Molecule: "CCOc1ccc(C(=O)OCC(=O)Nc2cccnc2Cl)cc1OCC"
  Classification: "NO"

Ask: What is the recorded call for this molecule in the test? CSc1nnc(C)c(/C=C/Nc2ccc(C)cc2)n1
Reply: YES

Ask: What is the recorded call for this molecule in the test? COc1ccc(-c2csc(NC(=O)CSc3nc(SC)ns3)n2)cc1
Reply: NO

----------
# Test target: Caspase-6 (Homo sapiens)
# Sequence (P55212 24-179 limits assumed): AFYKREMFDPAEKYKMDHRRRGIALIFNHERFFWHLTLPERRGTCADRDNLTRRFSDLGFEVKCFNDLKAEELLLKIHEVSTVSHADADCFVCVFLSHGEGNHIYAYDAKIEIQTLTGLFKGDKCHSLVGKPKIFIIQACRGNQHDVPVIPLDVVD
# Sequence (P55212 194-293 limits assumed): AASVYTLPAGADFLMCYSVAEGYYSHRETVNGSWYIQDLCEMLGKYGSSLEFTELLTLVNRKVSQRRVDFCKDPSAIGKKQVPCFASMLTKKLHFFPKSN
# Experiment: human caspase-6 inhibitors, dose response, biochemical, VEID-R110 fluorescence, cherry-pick (AID 720632)
Calls of active or inactive are those of the source.
Below, each of the molecules is paired with its reported AC50 value.

Here's what some known entries look like.
- Molecule: "Cc1nnc(N/N=C/c2ccccc2O)n1N"
  Test target: "Caspase-6 (Homo sapiens)"
  Data value: "13.3 µM (active)"
- Molecule: "O=C(NNC(=O)c1ccccc1Br)c1ccc2nc[nH]c2c1"
  Test target: "Caspase-6 (Homo sapiens)"
  Data value: "23.6 µM (active)"
- Molecule: "Cc1ccc(OCC(=O)c2c(N)n(C)c(=O)n(C)c2=O)c([N+](=O)[O-])n1"
  Test target: "Caspase-6 (Homo sapiens)"
  Data value: "18.9 µM (active)"
- Molecule: "Oc1cc(NCCN2CCOCC2)cc2cccnc12"
  Test target: "Caspase-6 (Homo sapiens)"
  Data value: "3.39 µM (active)"

Ask: Quote Caspase-6 (Homo sapiens) AC50 for entry CCN(CC)CCCC(C)n1c2nc(=O)[nH]c(=O)c-2nc2cc(Cl)ccc21 (stereo unspecified) .
Reply: 0.305 µM (active)

Ask: Quote Caspase-6 (Homo sapiens) AC50 for entry O=C(COC(=O)c1ccc([N+](=O)[O-])s1)Nc1ccc(F)cc1 .
Reply: 1.96 µM (active)

----------
# Test target: RNA-binding protein pos-1 (Caenorhabditis elegans)
# Sequence (G5EF15 whole entry, the tested form may be a part): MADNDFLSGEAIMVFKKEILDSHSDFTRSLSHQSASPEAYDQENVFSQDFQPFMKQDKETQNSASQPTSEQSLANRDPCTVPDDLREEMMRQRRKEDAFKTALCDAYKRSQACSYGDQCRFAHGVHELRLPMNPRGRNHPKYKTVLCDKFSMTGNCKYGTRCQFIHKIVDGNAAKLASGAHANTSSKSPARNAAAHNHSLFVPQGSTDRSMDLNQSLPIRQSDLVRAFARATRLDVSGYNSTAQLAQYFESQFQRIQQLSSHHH
# Experiment: inhibitors of POS-1/mex-3 RNA binding, dose response, biochemical, fluorescence polarization (AID 1964);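 note: purified POS-1 fused to maltose binding protein made in E. coli; potency of compounds blocking POS-1 binding to fluorescent RNA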
The source made the active and inactive calls.
Below, each of the compounds is paired with its reported EC50 value.

Here's what some known entries look like.
- Compound: "COc1ccc(C(=O)NC2(C(F)(F)F)C(=O)N(Cc3ccco3)C3=C2C(=O)CC(C)(C)C3)cc1OC (centres undefined)"
  EC50: "> 300 µM (not active)"
- Compound: "COc1cc(NC(=O)CSc2nnc3ccc(-c4ccncc4)nn23)cc(OC)c1"
  EC50: "> 300 µM (not active)"
- Compound: "Cc1c(N=C2Nc3cccc4cccc2c34)c(=O)n(-c2ccccc2)n1C"
  EC50: "> 300 µM (not active)"

Ask: Find the measured EC50 of CCOC1(OCC)N=C(N)C2(C#N)C(c3ccc(NC(C)=O)cc3)C12C#N (centres undefined) and report it.
Reply: 155 µM (active)

Ask: Find the measured EC50 of Cc1ccc(C(=O)Oc2oc(-c3ccccc3)nc2/C=N/c2ccc(N(C)C)cc2)cc1 and report it.
Reply: > 300 µM (not active)

Ask: Find the measured EC50 of O=C(c1ccco1)[C@@H]1[C@@H]2C(=O)N(c3ccccc3)C(=O)[C@@H]2C2c3ccccc3C=CN21 (some centres undefined) and report it.
Reply: 39.1 µM (active)

Ask: Find the measured EC50 of CCOc1ccc(NC(=O)COc2ccccc2)c([N+](=O)[O-])c1 and report it.
Reply: > 300 µM (not active)

Ask: Find the measured EC50 of Cc1ccc(N=Nc2c(O)[nH]c3ccc(F)cc23)cc1 and report it.
Reply: > 300 µM (inconclusive)

Ask: Find the measured EC50 of Cc1ccc(S(=O)(=O)Nc2ccccc2F)cc1C(=O)NNC(=O)c1csc(N2CCOCC2)n1 and report it.
Reply: 30.8 µM (active)
